Measured Inhibitory activity in Human Serum IC50 (C3b deposition, 0.5% human serum) of individual entries
- ASSAYED SYSTEM: human MASP-2 (human, UniProt O00187 16-686)
- Sequence (O00187 16-686): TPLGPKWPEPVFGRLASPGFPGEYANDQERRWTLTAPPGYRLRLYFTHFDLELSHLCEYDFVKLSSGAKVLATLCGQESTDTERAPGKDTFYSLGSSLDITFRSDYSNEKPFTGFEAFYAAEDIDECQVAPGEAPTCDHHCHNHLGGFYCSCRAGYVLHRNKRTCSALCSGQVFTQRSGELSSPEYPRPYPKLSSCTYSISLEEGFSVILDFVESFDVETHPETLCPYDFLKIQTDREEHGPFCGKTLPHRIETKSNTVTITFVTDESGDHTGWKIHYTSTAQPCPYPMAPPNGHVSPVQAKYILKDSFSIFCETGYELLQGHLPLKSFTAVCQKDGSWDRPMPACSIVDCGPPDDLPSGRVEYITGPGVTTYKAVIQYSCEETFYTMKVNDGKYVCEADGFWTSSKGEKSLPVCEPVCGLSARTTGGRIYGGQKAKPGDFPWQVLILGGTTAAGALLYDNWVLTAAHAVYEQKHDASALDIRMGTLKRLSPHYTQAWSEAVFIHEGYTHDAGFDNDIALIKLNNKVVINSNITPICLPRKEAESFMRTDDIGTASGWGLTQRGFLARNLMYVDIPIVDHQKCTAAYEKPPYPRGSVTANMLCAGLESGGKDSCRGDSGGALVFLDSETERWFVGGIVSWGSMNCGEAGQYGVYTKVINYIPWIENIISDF
- EXPERIMENT DESCRIPTION: cell-based or functional assay
VALUE KIND: Inhibitory activity in Human Serum IC50 (C3b deposition, 0.5% human serum) (nM)

BINDER	OUTPUT UNIT	RESULT VALUE
scFv mother clone 4D9 (scFv, also called 4D9 (18L16)) scFv: QITLKESGPVLVKPTETLTLTCTVSGFSLSNARMGVSWIRQPPGKALEWLAHIFSNDEKSYSTSLKSRLTISKDTSKSQVVLTMTNMDPVDTATYYCARMRYSSSLYGMDVWGQGTRVTVSSKLSGSASAPKLEEGEFSEARVSYELIQPPSVSVSPGQTASITCSGDKLGDKYVSWYQQKPGRSPVLVIYRDTKRPSGIPERFSGSNSGNTATLTISGTQAMDEADYYCQAWDSSTVVFGGGTKLTVLAAAGSEQKLISEEDLNSHHHHHH	nM	22
scFv mother clone 17D20 (scFv, also called 17D20 (17P10); 17D20mc) scFv: QVTLKESGPVLVKPTETLTLTCTVSGFSLSRGKMGVSWIRQPPGKALEWLAHIFSSDEKSYRTSLKSRLTISKDTSKNQVVLTMTNMDPVDTATYYCARIRAGGIDYWGQGTLVTVSSKLSGSASAPKLEEGEFSEARVQPVLTQPPSVSVSPGQTASITCSGDKLGDKFAYWYQQKPGHSPVLVIYQDNKRPSGIPGRFSGSNSGNTATLTISGTQAMDEADYYCQAWDSSTAVFGTGTKVTVLAAAGSEQKLISEEDLNSHHHHHH	nM	157
scFv mother clone 3F22 (scFv) scFv: QVQLQQSGPGLVKPSQTLSLTCAISGDSVSSNSAAWNWIRQSPSRGLEWLGRTYYRSKWYNDYAVSVKSRITINPDTSKNQFSLQLNSVTPEDTAVYYCARDPFGVPFDIWGQGTMVTVSSKLSGSASAPKLEEGEFSEARVSYVLTQPPSVSVAPGQTARVTCGGNNIRSKNVHWYQQKPGQAPVLVVYDDTDRPSGIPERFSGSNSGNTATLTVSRVEAGDEADYYCQVWDTTTDHVVFGGGTKLTVLAAAGSEQKLISEEDLNSHHHHHH	nM	20.6
